Reported Pre-emergent Herbicidal Activity: Echinochloa values for a set of molecules
# System: Echinochloa
# procedure text: Pre-emergence herbicidal action
# Assay type: in vivo
# test parameters: Table B3; 30 g/ha; rating 10=total damage, 0=no action

Past entries and their recorded results:
[[record]]
molecule = "COCCCc1nc(C(F)(F)F)ccc1C(=O)C1C(=O)C2CCC(C2)C1=O (centres unmarked)"
target_or_system = "Echinochloa"
result = 10

[[record]]
molecule = "COCCCCc1nc(C(F)(F)F)ccc1C(=O)C1C(=O)C2CCC(C2)C1=O (centres unmarked)"
target_or_system = "Echinochloa"
result = 7

[[record]]
molecule = "COC/C=C\\c1nc(C(F)(F)F)ccc1C(=O)C1C(=O)C2CCC(C2)C1=O (centres unmarked)"
target_or_system = "Echinochloa"
result = 3

[[record]]
molecule = "COCCc1nc(C(F)(F)F)ccc1C(=O)C1C(=O)C2CCC(C2)C1=O (centres unmarked)"
target_or_system = "Echinochloa"
result = 9


# next molecule below
Qu. Record lookup: for Echinochloa, what Pre-emergent Herbicidal Activity: Echinochloa belongs to COCc1nc(C(F)(F)F)ccc1C(=O)C1C(=O)C2CCC(C2)C1=O (centres unmarked) ?
Ans. 10

====

# key: entry, value: Post-emergence herbicidal action: Sinapis
# Tested on: Sinapis
# procedure text: Post-emergence herbicidal action
# Format: in vivo
# test parameters: 250 g/ha; 4- to 6-leaf stage; after about 18 days; rating 10=total damage, 0=no action
# From the text: […]
# respond with the number and nothing more

Qu. I'd like to know its Post-emergence herbicidal action: Sinapis. The compound in question is CCC12CCC(C1)C(=O)C(C(=O)c1ccc(C(F)(F)F)nc1CCCOC)C2=O (stereo not shown) [Compound H-17]
Ans. 9

Qu. State the recorded Post-emergence herbicidal action: Sinapis for this entry: CCOCCCc1nc(C(F)(F)F)ccc1C(=O)C1C(=O)C2CCC(C2)C1=O (stereo not shown) [Compound H-15]
Ans. 9

Qu. Quick check: Post-emergence herbicidal action: Sinapis of COCCCc1nc(C(F)(F)F)ccc1C(=O)C1C(=O)C2CCC(C)(C2)C1=O (stereo not shown) [Compound H-16] ?
Ans. 10

====

# Tested on: Corn
# procedure text: Pre-emergent herbicidal activity on crop plant
# Assay type: in vivo
# test parameters: Table B3; 15 g/ha; crop plant; rating 10=total damage, 0=no action
recorded endpoint: Pre-emergent Herbicidal Activity: Corn
Answer field: number only, no words.

Some compounds with recorded Pre-emergent Herbicidal Activity: Corn:
[[record]]
compound = "COCCc1nc(C(F)(F)F)ccc1C(=O)C1C(=O)C2CCC(C2)C1=O (centres unmarked)"
recorded_endpoint = "Pre-emergent Herbicidal Activity: Corn"
numeric_result = 0

[[record]]
compound = "COCCCCc1nc(C(F)(F)F)ccc1C(=O)C1C(=O)C2CCC(C2)C1=O (centres unmarked)"
recorded_endpoint = "Pre-emergent Herbicidal Activity: Corn"
numeric_result = 0

[[record]]
compound = "COC/C=C\\c1nc(C(F)(F)F)ccc1C(=O)C1C(=O)C2CCC(C2)C1=O (centres unmarked)"
recorded_endpoint = "Pre-emergent Herbicidal Activity: Corn"
numeric_result = 0

[[record]]
compound = "COCCCc1nc(C(F)(F)F)ccc1C(=O)C1C(=O)C2CCC(C2)C1=O (centres unmarked)"
recorded_endpoint = "Pre-emergent Herbicidal Activity: Corn"
numeric_result = 0


Qu. Item COCc1nc(C(F)(F)F)ccc1C(=O)C1C(=O)C2CCC(C2)C1=O (centres unmarked) has what recorded Pre-emergent Herbicidal Activity: Corn?
Ans. 1

====

Measured Pre-emergent Herbicidal Activity: Echinochloa values are reported for all entries that follow.
# Test system: Echinochloa
# procedure text: Pre-emergence herbicidal action
# Format: in vivo
# test parameters: Table B3; 15 g/ha; rating 10=total damage, 0=no action
Form field (numeric): enter value without unit.

// known answers, use as guide
[[record]]
compound = "COC/C=C\\c1nc(C(F)(F)F)ccc1C(=O)C1C(=O)C2CCC(C2)C1=O (stereo not shown) [C]"
numeric_result = 3

[[record]]
compound = "COCCCc1nc(C(F)(F)F)ccc1C(=O)C1C(=O)C2CCC(C2)C1=O (stereo not shown) [Compound H-14]"
numeric_result = 9

[[record]]
compound = "COCc1nc(C(F)(F)F)ccc1C(=O)C1C(=O)C2CCC(C2)C1=O (stereo not shown) [B]"
numeric_result = 9


Attention now turns to another entry.
Qu. Would you mind telling me what Pre-emergent Herbicidal Activity: Echinochloa value was observed for COCCc1nc(C(F)(F)F)ccc1C(=O)C1C(=O)C2CCC(C2)C1=O (stereo not shown) [A] ?
Ans. 4

====

# System: Soya
# procedure text: Pre-emergent herbicidal activity on crop plant
# Assay type: in vivo
# test parameters: Table B3; 15 g/ha; crop plant; rating 10=total damage, 0=no action
Reported Pre-emergent Herbicidal Activity: Soya by item:

[[record]]
compound = "COCc1nc(C(F)(F)F)ccc1C(=O)C1C(=O)C2CCC(C2)C1=O (centres unmarked) [B]"
result = 6


Qu. Form: Entry = COCCCc1nc(C(F)(F)F)ccc1C(=O)C1C(=O)C2CCC(C2)C1=O (centres unmarked) [Compound H-14] | System = Soya | Pre-emergent Herbicidal Activity: Soya = ____
Ans. 1

====

# System: Digitaria
# procedure text: Pre-emergence herbicidal action
# Type: in vivo
# test parameters: 250 g/ha; after 3 weeks; rating 10=total damage, 0=no action
Pre-emergence herbicidal action: Digitaria values, listed per item

[[record]]
molecule = "COCCCc1nc(C(F)(F)Cl)ccc1C(=O)C1C(=O)C2CCC(C2)C1=O (centres unmarked) [Compound H-9]"
result = 10

[[record]]
molecule = "COCCCc1nc(C(F)F)ccc1C(=O)C1C(=O)C2CCC(C)(C2)C1=O (centres unmarked) [Compound H-1]"
result = 9

[[record]]
molecule = "COCCCc1nc(C(F)(F)F)ccc1C(=O)C1C(=O)C2CCC(C2)C1=O (centres unmarked) [Compound H-14]"
result = 10

[[record]]
molecule = "COCCCc1nc(C(F)(F)F)ccc1C(=O)C1C(=O)C2CCC(C)(C2)C1=O (centres unmarked) [Compound H-16]"
result = 10

[[record]]
molecule = "COCCCc1nc(C(F)F)ccc1C(=O)C1C(=O)C2CCC(C2)C1=O (centres unmarked) [Compound H-3]"
result = 10


Qu. For COCCCc1nc(C(F)F)ccc1C(=O)C1C(=O)C2CCC(CC2)C1=O (centres unmarked) [Compound H-4] , what is its reported Pre-emergence herbicidal action: Digitaria?
Ans. 9

Qu. Look at this molecule and give its reported Pre-emergence herbicidal action: Digitaria. COCCCc1nc(C(F)F)ccc1C(=O)C1C(=O)C2CCCC(C2)C1=O (centres unmarked) [Compound H-21]
Ans. 10

Qu. Which Pre-emergence herbicidal action: Digitaria reading was recorded for the molecule CCOCCCc1nc(C(F)(F)F)ccc1C(=O)C1C(=O)C2CCC(C2)C1=O (centres unmarked) [Compound H-15] ?
Ans. 9

====

# System: Sinapis
# procedure text: Post-emergence herbicidal action
# Assay type: in vivo
# test parameters: 250 g/ha; 4- to 6-leaf stage; after about 18 days; rating 10=total damage, 0=no action
recorded endpoint: Post-emergence herbicidal action: Sinapis

As a guide, the following entries are already answered.
[[record]]
compound = "COCCCc1nc(C(F)(F)Cl)ccc1C(=O)C1C(=O)C2CCC(C2)C1=O (stereo not shown) [Compound H-9]"
result = 7

[[record]]
compound = "COCCCc1nc(C(F)F)ccc1C(=O)C1C(=O)C2CCC(C2)C1=O (stereo not shown) [Compound H-3]"
result = 9

[[record]]
compound = "COCCCc1nc(C(F)F)ccc1C(=O)C1C(=O)C2CCC(CC2)C1=O (stereo not shown) [Compound H-4]"
result = 9


Qu. I am curious: what Post-emergence herbicidal action: Sinapis value has been reported for COCCCc1nc(C(F)F)ccc1C(=O)C1C(=O)C2CCC(C)(C2)C1=O (stereo not shown) [Compound H-1] ?
Ans. 8

Qu. I have this compound here, COCCCc1nc(C(F)(F)F)ccc1C(=O)C1C(=O)C2CCC(C2)C1=O (stereo not shown) [Compound H-14] , and I need its recorded Post-emergence herbicidal action: Sinapis.
Ans. 10

Qu. Any idea what Post-emergence herbicidal action: Sinapis was measured for COCCCc1nc(C(F)(F)F)ccc1C(=O)C1C(=O)C2CCCC(C2)C1=O (stereo not shown) [Compound H-19] ?
Ans. 9

Qu. Query (compound): COCCCc1nc(C(F)F)ccc1C(=O)C1C(=O)C2CCCC(C2)C1=O (stereo not shown) [Compound H-21] ; field requested: Post-emergence herbicidal action: Sinapis
Ans. 9

====

# System: Soya
# procedure text: Pre-emergent herbicidal activity on crop plant
# Type: in vivo
# test parameters: Table B3; 15 g/ha; crop plant; rating 10=total damage, 0=no action
Reported Pre-emergent Herbicidal Activity: Soya is given for each of the following compounds.
No unit in the answer, only the number.

Qu. Look up Pre-emergent Herbicidal Activity: Soya: COC/C=C\c1nc(C(F)(F)F)ccc1C(=O)C1C(=O)C2CCC(C2)C1=O (stereo not drawn) [C]
Ans. 0

Qu. // query Pre-emergent Herbicidal Activity: Soya value for entry COCCc1nc(C(F)(F)F)ccc1C(=O)C1C(=O)C2CCC(C2)C1=O (stereo not drawn) [A]
Ans. 2

Qu. Query (compound): COCCCCc1nc(C(F)(F)F)ccc1C(=O)C1C(=O)C2CCC(C2)C1=O (stereo not drawn) [Compound F] ; field requested: Pre-emergent Herbicidal Activity: Soya
Ans. 0
